meta.source: patent US20230398102A1

- experiment_summary: Excipient compatibility: rifaximin solutions stored at various temperatures, chemical purity by HPLC
- Assay type: physicochemical
- run_conditions: rifaximin in named solvent; T 2 weeks, 25° C.
The following compounds are shown together with reported Rifaximin % Label Claim (LC) values.

Worked set:
CC(O)CO (stereo not drawn) [Propylene glycol] = 96.9 % Label Claim (LC)
CCOC(=O)CCCCCCCCC(=O)OCC [Diethyl sebacate] = 102.1 % Label Claim (LC)
CC(C)OC(=O)CCCCC(=O)OC(C)C [Diisopropyl adipate] = 95.3 % Label Claim (LC)
CCCCC/C=C\C/C=C\CCCCCCCC(=O)OCC(O)CO (stereo not drawn) [Glyceryl monolinoleate] = 98.7 % Label Claim (LC)

Problem: Input OCCOCCOCCO [Triethylene glycol] , output reported Rifaximin % Label Claim (LC).
Solution: 98.3 % Label Claim (LC)

Problem: Input CCCCCCCC/C=C\CCCCCCCCO [Oleyl alcohol] , output reported Rifaximin % Label Claim (LC).
Solution: 96.3 % Label Claim (LC)

###

- experiment_summary: Excipient compatibility: rifaximin solutions stored at various temperatures, chemical purity by HPLC
- Assay type: physicochemical
- run_conditions: rifaximin in named solvent; T0
metric_name: Rifaximin % Label Claim (LC)

CC(C)OC(=O)CCCCC(=O)OC(C)C [Diisopropyl adipate] = 97.6 % Label Claim (LC)

Problem: Input CCCCCCCC/C=C\CCCCCCCC(=O)OCC(O)CO (stereo not drawn) [Glyceryl monooleate (Type 40), Glyceryl monooleate] , output reported Rifaximin % Label Claim (LC).
Solution: 92.7 % Label Claim (LC)

Problem: Input CCOCCOCCO , output reported Rifaximin % Label Claim (LC).
Solution: 97.3 % Label Claim (LC)

Problem: Input CCCCCCCC/C=C\CCCCCCCCO , output reported Rifaximin % Label Claim (LC).
Solution: 98.7 % Label Claim (LC)

Problem: Input CCCCC/C=C\C/C=C\CCCCCCCC(=O)OCC(O)CO (stereo not drawn) [Glyceryl monolinoleate] , output reported Rifaximin % Label Claim (LC).
Solution: 102.7 % Label Claim (LC)

Problem: Input OCCOCCOCCO , output reported Rifaximin % Label Claim (LC).
Solution: 97.5 % Label Claim (LC)

Problem: Input OCc1ccccc1 , output reported Rifaximin % Label Claim (LC).
Solution: 99.3 % Label Claim (LC)

Problem: Input CCOC(=O)CCCCCCCCC(=O)OCC [Diethyl sebacate] , output reported Rifaximin % Label Claim (LC).
Solution: 102.7 % Label Claim (LC)

Problem: Input CC(O)CO (stereo not drawn) , output reported Rifaximin % Label Claim (LC).
Solution: 97.9 % Label Claim (LC)

###

- experiment_summary: Compatibility of individual excipients with hard gelatin capsule shells
- Assay type: physicochemical
- run_conditions: Hard Gel Capsules; T 2 weeks, 25° C.
metric_name: Physical change (Yes or No)

Worked set:
CCOCCOCCO = No
OCCOCCOCCO = Yes
OCc1ccccc1 = Yes
CCCCCCCC/C=C\CCCCCCCCO = No

Problem: Input CCCCCCCC/C=C\CCCCCCCC(=O)OCC(O)CO (stereo not shown) [Glyceryl monooleate (Type 40), Glyceryl monooleate] , output reported Physical change (Yes or No).
Solution: No

Problem: Input CCOC(=O)CCCCCCCCC(=O)OCC [Diethyl sebacate] , output reported Physical change (Yes or No).
Solution: No

Problem: Input CCCCC/C=C\C/C=C\CCCCCCCC(=O)OCC(O)CO (stereo not shown) [Glyceryl monolinoleate] , output reported Physical change (Yes or No).
Solution: No
